# assay target: OAT3 (Mus musculus, UniProt O88909)
# assay: Plasma metabolomics profiling of Oat3KO versus wild-type mice
# study conditions: Oat3KO vs wild type mice
value kind: change in plasma of the Oat3KO

[[record]]
molecule = "C[C@H](CCC(=O)O)[C@H]1CC[C@H]2[C@@H]3[C@@H](O)C[C@@H]4C[C@H](O)CC[C@]4(C)[C@H]3CC[C@]12C [ursodeoxycholate]"
assay_target = "OAT3 (Mus musculus, UniProt O88909)"
result = "significantly increased"

[[record]]
molecule = "C[C@H](CCC(=O)O)[C@H]1CC[C@H]2[C@@H]3C(=O)C[C@@H]4C[C@H](O)CC[C@]4(C)[C@H]3C[C@H](O)[C@]12C [7-ketodeoxycholate]"
assay_target = "OAT3 (Mus musculus, UniProt O88909)"
result = "significantly increased"


---

Target chain: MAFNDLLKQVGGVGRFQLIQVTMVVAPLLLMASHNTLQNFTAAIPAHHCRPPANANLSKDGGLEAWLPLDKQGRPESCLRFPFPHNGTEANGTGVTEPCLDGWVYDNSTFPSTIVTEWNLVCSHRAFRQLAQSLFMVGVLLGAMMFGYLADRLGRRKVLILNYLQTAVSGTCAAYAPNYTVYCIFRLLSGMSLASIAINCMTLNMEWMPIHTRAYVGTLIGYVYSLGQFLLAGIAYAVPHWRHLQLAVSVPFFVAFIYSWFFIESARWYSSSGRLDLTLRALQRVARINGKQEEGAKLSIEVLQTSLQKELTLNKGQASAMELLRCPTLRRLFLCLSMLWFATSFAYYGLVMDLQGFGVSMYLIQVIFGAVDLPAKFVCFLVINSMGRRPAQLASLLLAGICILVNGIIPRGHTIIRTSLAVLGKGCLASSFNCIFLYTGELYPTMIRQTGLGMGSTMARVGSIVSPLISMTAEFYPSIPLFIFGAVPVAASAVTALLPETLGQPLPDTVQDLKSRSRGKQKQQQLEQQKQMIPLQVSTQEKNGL
Readings of pIC50 for the listed molecules
When answering, recall that pIC50 equals minus log10 of the concentration in mol/L, and write that number alone.

[[record]]
molecule = "Cc1nc2n(c(=O)c1CCN1CCC(c3noc4cc(F)ccc34)CC1)CCCC2O (centres unmarked)"
numeric_value = 2.97


Next molecule, please.
Problem: Tell us which pIC50 value is on record for NC(=O)C(c1ccccc1)(c1ccccc1)[C@@H]1CCN(CCc2ccc3c(c2)CCO3)C1
Solution: 3.09

---

# assay target: OAT3 (Mus musculus, UniProt O88909)
# assay: Plasma metabolomics profiling of Oat3KO versus wild-type mice
# study conditions: Oat3KO vs wild type mice
Structures can show the parent of a compound that is named as a salt.
value kind: change in plasma of the Oat3KO

Below are worked cases with known answers.
[[record]]
compound = "O=C(O)CCCCCCCCC(=O)O [sebacate]"
result = "altered"

[[record]]
compound = "Cc1ccc(O[C@@H]2O[C@H](C(=O)O)[C@@H](O)[C@H](O)[C@H]2O)cc1 [p-cresol-glucuronide]"
result = "significantly increased"

[[record]]
compound = "Cc1ccc(OS(=O)(=O)O)cc1 [p-cresol sulfate]"
result = "significantly increased"

[[record]]
compound = "O=S(=O)(O)Oc1c[nH]c2ccccc12 [3-indoxyl sulfate]"
result = "accumulate in the plasma"


Problem: Tell us which change in plasma of the Oat3KO value is on record for CCCC(O)CC(=O)O (stereo not shown) [3-hydroxyhexanoate]
Solution: altered

Problem: Tell us which change in plasma of the Oat3KO value is on record for CC(=O)N[C@@H](Cc1c[nH]c2ccccc12)C(=O)O
Solution: accumulate in the plasma

Problem: Tell us which change in plasma of the Oat3KO value is on record for CCCCCCCCC(O)C(=O)O (stereo not shown) [2-hydroxydecanoate]
Solution: altered

Problem: Tell us which change in plasma of the Oat3KO value is on record for NCCc1c[nH]c2ccc(O)cc12
Solution: accumulate in the plasma

Problem: Tell us which change in plasma of the Oat3KO value is on record for O=S(=O)(O)Oc1ccccc1 [phenol sulfate]
Solution: significantly increased

Problem: Tell us which change in plasma of the Oat3KO value is on record for O=C(O)c1c[nH]c2ccccc12
Solution: accumulate in the plasma

---

Readings of Ki for the listed molecules
# assay target: OAT1 (Mus musculus, UniProt Q8VC69)
# assay: Uptake inhibition assay in Oat1-transfected CHO cells (6-carboxyfluorescein tracer)
# study conditions: read-out: calculated Ki
Express the result in µM but write the number alone.

Problem: Tell us which Ki value is on record for O=C(O)CCCCCCCCCCCCCCCO [16-hydroxy-hexadecanoic acid]
Solution: 13

---

# assay target: OAT3 (Mus musculus, UniProt O88909)
# Sequence (O88909 1-537): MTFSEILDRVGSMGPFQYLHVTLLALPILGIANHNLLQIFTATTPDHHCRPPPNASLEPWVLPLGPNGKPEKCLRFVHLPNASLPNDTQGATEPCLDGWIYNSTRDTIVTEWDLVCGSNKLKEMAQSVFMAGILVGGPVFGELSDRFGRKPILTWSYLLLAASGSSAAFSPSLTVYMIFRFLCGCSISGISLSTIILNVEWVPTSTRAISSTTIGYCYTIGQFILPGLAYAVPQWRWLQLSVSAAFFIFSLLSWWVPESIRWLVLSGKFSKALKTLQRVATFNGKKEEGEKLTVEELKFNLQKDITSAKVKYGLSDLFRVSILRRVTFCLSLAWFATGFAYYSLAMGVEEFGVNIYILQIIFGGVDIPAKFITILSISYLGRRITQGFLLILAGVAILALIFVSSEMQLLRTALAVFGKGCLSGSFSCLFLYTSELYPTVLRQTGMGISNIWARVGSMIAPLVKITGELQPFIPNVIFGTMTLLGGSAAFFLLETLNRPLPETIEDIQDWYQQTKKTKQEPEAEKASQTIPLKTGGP
# assay: Plasma metabolomics profiling of Oat3KO versus wild-type mice
# study conditions: Oat3KO vs wild type mice, statistical significance not achieved
value kind: change in plasma of the Oat3KO

Below are worked cases with known answers.
[[record]]
compound = "C[C@H](CCC(=O)NCCS(=O)(=O)O)[C@H]1CC[C@H]2[C@@H]3[C@@H](O)C[C@@H]4C[C@H](O)CC[C@]4(C)[C@H]3CC[C@]12C [tauroursodeoxycholate]"
result = "increased over ten-fold"

[[record]]
compound = "C[C@H](CCC(=O)NCCS(=O)(=O)O)[C@H]1CC[C@H]2[C@@H]3[C@@H](O)[C@@H](O)[C@@H]4C[C@H](O)CC[C@]4(C)[C@H]3CC[C@]12C [tauro-beta-muricholate]"
result = "increased"

[[record]]
compound = "C[C@H](CCC(=O)O)[C@H]1CC[C@H]2[C@@H]3[C@H](O)C[C@@H]4C[C@H](O)CC[C@]4(C)[C@H]3CC[C@]12C [chenodeoxycholate]"
result = "increased"

[[record]]
compound = "C[C@H](CCC(=O)NCCS(=O)(=O)[O-])[C@H]1CC[C@H]2[C@@H]3C[C@H](O)[C@@H]4C[C@H](O)CC[C@]4(C)[C@H]3CC[C@]12C.[Na+] [taurohyodeoxycholic acid]"
result = "increased over ten-fold"

[[record]]
compound = "C[C@H](CCC(=O)NCC(=O)O)[C@H]1CC[C@H]2[C@@H]3[C@H](O)C[C@@H]4C[C@H](O)CC[C@]4(C)[C@H]3C[C@H](O)[C@]12C [glycocholate]"
result = "increased"


Problem: GET change in plasma of the Oat3KO where system = OAT3 (Mus musculus, UniProt O88909) and item = C[C@H](CCC(=O)NCCS(=O)(=O)O)[C@H]1CC[C@H]2[C@@H]3CC[C@@H]4C[C@H](O)CC[C@]4(C)[C@H]3C[C@H](O)[C@]12C [taurodeoxycholate]
Solution: increased over ten-fold

---

# assay target: OAT3 (Mus musculus, UniProt O88909)
# Sequence (O88909 1-537): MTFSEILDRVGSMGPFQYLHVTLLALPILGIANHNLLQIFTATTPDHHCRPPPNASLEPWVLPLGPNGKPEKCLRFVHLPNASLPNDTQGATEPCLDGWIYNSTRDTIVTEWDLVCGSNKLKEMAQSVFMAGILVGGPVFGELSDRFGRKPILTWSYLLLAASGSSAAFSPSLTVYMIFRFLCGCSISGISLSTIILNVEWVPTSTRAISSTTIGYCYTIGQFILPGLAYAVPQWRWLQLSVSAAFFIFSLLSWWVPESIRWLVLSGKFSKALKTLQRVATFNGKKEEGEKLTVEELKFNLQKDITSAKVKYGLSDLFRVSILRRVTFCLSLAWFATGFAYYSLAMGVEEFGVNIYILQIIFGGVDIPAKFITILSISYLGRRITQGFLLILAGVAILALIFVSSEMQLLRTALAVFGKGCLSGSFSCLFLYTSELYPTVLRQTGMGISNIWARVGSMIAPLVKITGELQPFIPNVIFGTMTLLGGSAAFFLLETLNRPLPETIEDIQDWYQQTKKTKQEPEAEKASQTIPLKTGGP
Labelling field: enter fulfilled if recorded IC50 is less than 200 µM. Enter not fulfilled if it equals or exceeds that cut-off.

[[record]]
compound = "Cc1nc2n(c(=O)c1CCN1CCC(c3noc4cc(F)ccc34)CC1)CCCC2O (centres unmarked)"
group_label = "not fulfilled"

[[record]]
compound = "OC(CNCC(O)C1CCc2cc(F)ccc2O1)C1CCc2cc(F)ccc2O1 (centres unmarked)"
group_label = "fulfilled"

[[record]]
compound = "CN(C)C(=O)C(CCN1CCC(O)(c2ccc(Cl)cc2)CC1)(c1ccccc1)c1ccccc1 [Loperamide]"
group_label = "fulfilled"


--- query ---
Problem: Field: below-cutoff. Rule: recorded IC50 strictly less than 200 µM. Subject: CCCN(CCC)S(=O)(=O)c1ccc(C(=O)O)cc1
Solution: fulfilled
